- System: Spodoptera frugiperda larvae
- assayNotes: whole plant or invertebrate
- Type: in vivo
- testSettings: concentration 1000 µg/mL
Lab note: compare Antifeedant index (% AI) against 70%. Equal or greater, write Yes. Smaller, write No.

> print(dat)
                                   molecule  grouplabel
1  C=CCc1ccc(O)c(OC)c1 [Compound 1, Eugenol]         Yes
2  CCCc1ccc(O)c(OC)c1 [Compound 13, 2-methoxy-4-propylphenol]         Yes
3  C/C=C/c1ccc(OC)c(OC)c1 [Compound 9, O-methylisoeugenol]          No
4  CC=Cc1ccc(OC(=O)c2ccc([N+](=O)[O-])cc2)c(OC)c1 [Compound 12, O-(4-nitrobenzoyl)isoeugenol]          No
5  COc1cc(C2OCOCC2C)ccc1O (centres unmarked) [Compound 14]          No

* * *

- Tested on: Spodoptera frugiperda larvae
- assayNotes: whole plant or invertebrate
- Assay type: in vivo
- testSettings: concentration 1000 µg/mL
endpointName: Antifeedant index (% AI) (%)

> print(dat)
                                   compound              endpointname  experimentalvalue
1  CC1(C)C(C=C(Cl)Cl)C1C(=O)OC(C#N)c1cccc(Oc2ccccc2)c1 (stereo not drawn) [Cypermethrin, cypermethrin, reference compound]  Antifeedant index (% AI)               77.9
2                 C=CCc1ccc(OC(C)=O)c(OC)c1  Antifeedant index (% AI)               55.3
3  C=CCc1ccc(OC(=O)c2ccc([N+](=O)[O-])cc2)c(OC)c1  Antifeedant index (% AI)               55.0

* * *

Here we list molecules with their recorded IC50 when tested on UniProt:O42275.
Sequence (O42275 24-633): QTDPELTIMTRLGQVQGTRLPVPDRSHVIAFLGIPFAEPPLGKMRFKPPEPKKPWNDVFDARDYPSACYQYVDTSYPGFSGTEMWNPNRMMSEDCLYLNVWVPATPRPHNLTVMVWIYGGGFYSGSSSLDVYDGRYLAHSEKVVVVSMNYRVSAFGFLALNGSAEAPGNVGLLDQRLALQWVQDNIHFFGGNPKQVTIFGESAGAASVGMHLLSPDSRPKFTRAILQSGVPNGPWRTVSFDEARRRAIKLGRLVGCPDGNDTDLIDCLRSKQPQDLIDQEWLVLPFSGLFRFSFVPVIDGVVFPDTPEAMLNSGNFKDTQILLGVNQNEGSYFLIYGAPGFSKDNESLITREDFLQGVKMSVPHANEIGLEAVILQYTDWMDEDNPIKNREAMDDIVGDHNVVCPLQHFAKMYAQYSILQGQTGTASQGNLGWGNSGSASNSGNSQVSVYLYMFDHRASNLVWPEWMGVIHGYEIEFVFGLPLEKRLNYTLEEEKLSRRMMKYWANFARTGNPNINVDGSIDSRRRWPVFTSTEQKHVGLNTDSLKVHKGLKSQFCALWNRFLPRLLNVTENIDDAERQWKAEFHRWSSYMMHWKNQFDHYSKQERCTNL
endpointName: IC50 (µM)

> print(dat)
                                   molecule  endpointname  experimentalvalue
1  COc1cc(C2OCOCC2C)ccc1O (stereo not drawn) [Compound 14]          IC50                168
2  CC=Cc1ccc(OC(=O)c2ccc([N+](=O)[O-])cc2)c(OC)c1 [Compound 12, O-(4-nitrobenzoyl)isoeugenol]          IC50                228
3  C=CCc1ccc(OC(=O)c2ccc([N+](=O)[O-])cc2)c(OC)c1 [Compound 7, O-(4-nitrobenzoyl)eugenol]          IC50                314
4  C=CCc1ccc(OC)c(OC)c1 [Compound 2, O-methyleugenol]          IC50                157
5  C=CCc1ccc(OC(C)=O)c(OC)c1 [Compound 6, acetyleugenol]          IC50                184
6  C/C=C/c1ccc(OC)c(OC)c1 [Compound 9, O-methylisoeugenol]          IC50                151
7  C=CCc1ccc(O)c(OC)c1 [Compound 1, Eugenol]          IC50                180
8  CCCc1ccc(O)c(OC)c1 [Compound 13, 2-methoxy-4-propylphenol]          IC50                132
9  CNC(=O)ON=C(C)SC [Methomyl, methomyl, reference compound]          IC50               1.91
